assay: acetaminophen cytotoxicity, cell viability by XTT assay; type: cell-based; conditions: RCB001 cells (liver derived mesenchymal like cells); acetaminophen 5 mM, 48 hrs incubation, control 100%
endpointLabel: viability at 48 h, 5 mM

Lookup result for CC(=O)Nc1ccc(O)cc1 [Acetaminophen] ; measured viability at 48 h, 5 mM: 57 to 81%

* * *

experiment: acetaminophen cytotoxicity, cell viability by XTT assay; type: cell-based; conditions: human, HepG2 cells; acetaminophen 10 mM, 48 hrs incubation, control 100%
endpointLabel: viability at 48 h, 10 mM (%)
Number only, in %; omit the unit.

Lookup result for CC(=O)Nc1ccc(O)cc1 [Acetaminophen] ; measured viability at 48 h, 10 mM: 46
